experimental_system: T1, MIS12 complex with phosphomimetic Dsn1 S100D S109D (Homo sapiens, UniProt Q9H081 1-205; Q6P1K2 1-205; Q9H410 1-356; Q96IY1 1-281, S100D | S109D)
T1 construct: Mis12, subunit of human MIS12C; Pmf1, subunit of human MIS12C; Dsn1, subunit of human MIS12C, S100D S109D; Nsl1, subunit of human MIS12C; also called MIS12C^(Dsn1-S100D S109D); MIS12C^(Dsn1 S100D/S109D); source: High-5 insect cells (baculovirus), purified (Strep-Tactin, Resource S, Superdex 200); copies: + + +
T1 sequence (looked up) 1: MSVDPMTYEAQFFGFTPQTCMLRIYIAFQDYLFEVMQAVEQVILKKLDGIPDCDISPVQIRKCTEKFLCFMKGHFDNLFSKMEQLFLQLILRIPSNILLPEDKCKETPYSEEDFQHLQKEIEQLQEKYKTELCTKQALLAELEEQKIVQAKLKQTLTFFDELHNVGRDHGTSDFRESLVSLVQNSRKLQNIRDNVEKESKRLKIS
T1 sequence (looked up) 2: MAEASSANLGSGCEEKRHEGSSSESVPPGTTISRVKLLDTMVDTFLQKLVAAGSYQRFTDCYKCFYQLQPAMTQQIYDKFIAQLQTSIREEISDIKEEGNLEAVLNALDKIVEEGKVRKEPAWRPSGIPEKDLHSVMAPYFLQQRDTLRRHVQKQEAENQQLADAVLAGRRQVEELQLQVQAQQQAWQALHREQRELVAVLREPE
T1 sequence (looked up) 3: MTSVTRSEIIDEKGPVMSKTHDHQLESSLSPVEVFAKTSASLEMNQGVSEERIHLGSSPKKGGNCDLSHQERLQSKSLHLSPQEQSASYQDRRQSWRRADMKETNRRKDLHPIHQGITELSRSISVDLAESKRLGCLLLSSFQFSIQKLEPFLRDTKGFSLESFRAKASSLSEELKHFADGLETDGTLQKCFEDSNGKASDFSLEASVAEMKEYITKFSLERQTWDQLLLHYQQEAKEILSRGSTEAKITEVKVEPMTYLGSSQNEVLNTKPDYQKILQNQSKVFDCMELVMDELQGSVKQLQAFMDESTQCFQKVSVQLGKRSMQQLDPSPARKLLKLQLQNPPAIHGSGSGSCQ
T1 sequence (looked up) 4: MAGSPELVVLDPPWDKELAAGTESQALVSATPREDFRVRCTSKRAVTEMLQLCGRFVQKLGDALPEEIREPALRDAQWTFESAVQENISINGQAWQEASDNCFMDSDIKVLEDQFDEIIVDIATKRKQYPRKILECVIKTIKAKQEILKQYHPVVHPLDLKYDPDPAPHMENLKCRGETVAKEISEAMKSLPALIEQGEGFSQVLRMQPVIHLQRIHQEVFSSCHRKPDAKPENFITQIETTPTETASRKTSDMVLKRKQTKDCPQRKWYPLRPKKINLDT
experiment_notes: ITC; peptide in the syringe titrated into the MIS12C variant in the cell; 20 °C; 20 mM HEPES pH 7.5, 100 mM NaCl, 1 mM TCEP; single-site binding model; duplicate or triplicate
assay_context: both partners purified
readout: Kd (nM)

[[record]]
binder = "Ac-AASGLDHLKNGYRRRFCRPSRA-NH2 (CENP-C, human, named residues 2-22; also called N-terminal region of CENP-C (residues 2–22); source: synthetic peptide (Biosynth)) [CENP-C^2–22 peptide]"
readout = "Kd"
observed_measurement = 20.4

